Where do these numbers come from? They come from patent US20100048564A1.

metric name: melting point

- query smiles: "Cn1c(COc2cccc(C(=O)O)c2)nc2ccc(Oc3cccc(OC(F)(F)F)c3)cc21"
  metric name: "melting point"
  recorded result: "221 to 227 °C"
- query smiles: "COC(=O)c1cccc(OCc2nc3ccc(Oc4cccnc4)cc3n2C)c1.Cl.Cl"
  metric name: "melting point"
  recorded result: "195 to 208 °C"
- query smiles: "Cc1cc(Oc2ccc3nc(COc4cccc(C(=O)O)c4)n(C)c3c2)cc(C)c1N.Cl.Cl"
  metric name: "melting point"
  recorded result: "235 to 239 °C"
- query smiles: "Cl.Cn1c(COc2cccc(C(=O)O)c2)nc2ccc(Oc3cccc(Cl)c3)cc21"
  metric name: "melting point"
  recorded result: "218 to 222 °C"
- query smiles: "Cc1cc(F)cc(Oc2ccc3nc(COc4cccc(C(=O)O)c4)n(C)c3c2)c1"
  metric name: "melting point"
  recorded result: "224 to 226 °C"
- query smiles: "CCc1cccc(Oc2ccc3nc(COc4cccc(C(=O)O)c4)n(C)c3c2)c1"
  metric name: "melting point"
  recorded result: "204 to 208 °C"
- query smiles: "Cn1c(COc2cccc(C(=O)O)c2)nc2ccc(Oc3cc(F)cc(Cl)c3)cc21"
  metric name: "melting point"
  recorded result: "209 to 213 °C"
